- Tested on: RAW-Dual
- experiment_description: NF-kB SEAP reporter activity, fold change vs agonist alone; higher = enhanced NF-kB activity
- details: library stock concentration (final ~1000-fold dilution): 10 mM; cytotoxicity flag (confluency mask): not cytotoxic; agonist: Imiquimod (TLR7) […]
The full ranking holds about 2,900 compounds; the median of “NF-kB SEAP reporter activity, fold change vs agonist alone” is about 0.99, and the highest 2% start at about 2.6. This excerpt belongs to a sample that is enriched for the highest values.
property: NF-kB SEAP reporter activity

compound="C=CC1CN2CCC3(C(=O)Nc4ccccc43)C2CC1/C(=C\\OC)C(=O)OC (stereo not drawn)" value_measured=0.91
compound=N#CC(C#N)=Cc1ccc(O)c(O)c1 value_measured=0.89
compound="Br.CN1C2CC(OC(=O)C(CO)c3ccccc3)CC1C1OC12.O.O.O (stereo not drawn)" value_measured=0.88
compound="COC1=CC2C3Cc4ccc(OC)c(O)c4C2(CCN3C)CC1=O.Cl (stereo not drawn)" value_measured=0.858
compound=Cl.O=C(O)Cc1c[nH]cn1 value_measured=0.935
compound="O.O=C1C=CCC2C3CCCN4CCCC(CN12)C34 (stereo not drawn)" value_measured=0.531
compound="COc1cc(C)[nH]c(=O)c1CNC(=O)c1c(C)n(C(C)C2CCOCC2)c2ccccc12 (stereo not drawn)" value_measured=0.902
compound=Cl[Te]1(Cl)(Cl)OCCO1.N value_measured=0.792
compound=CN1C2CCC1CC(=O)C2 value_measured=1.66
compound="C=C(C)C1Cc2c(ccc3c2OC2COc4cc(OC)c(OC)cc4C2C3=O)O1 (stereo not drawn)" value_measured=1.87
compound=Cl.NCCc1ccc(S(=O)(=O)F)cc1 value_measured=1.07
compound="CN1C2CCC1CC(OC(=O)C(CO)c1ccccc1)C2.CN1C2CCC1CC(OC(=O)C(CO)c1ccccc1)C2.O.O=S(=O)(O)O (stereo not drawn)" value_measured=0.838
compound="CCC1CN2CCC3(C(=O)Nc4ccccc43)C2CC1/C(=C\\OC)C(=O)OC (stereo not drawn)" value_measured=0.907
compound=COc1ccc2c(c[n+](C)c3c4cc5c(cc4ccc23)OCO5)c1OC.Cl value_measured=0.228
compound="Cc1sc2c(c1C)C(c1ccc(Cl)cc1)=NC(CC(=O)Nc1ccc(O)cc1)c1nnc(C)n1-2 (stereo not drawn)" value_measured=1.49
compound="CC12NC(Cc3ccccc31)c1ccccc12.O=C(O)/C=C\\C(=O)O (stereo not drawn)" value_measured=1.16
compound="COc1cc(C2c3cc4c(cc3C(O)C3COC(=O)C23)OCO4)cc(OC)c1O (stereo not drawn)" value_measured=2.53
compound="Cc1c(C(C)C2NCC(C)CC2O)ccc2c1CC1C2CC=C2CC(O)CCC21C (stereo not drawn)" value_measured=0.945

====

- Tested on: RAW-Dual
- experiment_description: NF-kB SEAP reporter activity, fold change vs agonist alone; cytotoxicity flag (confluency mask): not cytotoxic; library stock concentration (final ~1000-fold dilution): 10 mM; higher = enhanced NF-kB activity
- details: agonist: Pam3CSK4 (TLR2/1) 0.1 ug/mL
Over roughly 2,900 compounds, “NF-kB SEAP reporter activity, fold change vs agonist alone” has its median near 0.99; the highest 2% begin near 2.6. This excerpt belongs to a sample that is enriched for the highest values.
Classify by measured NF-kB SEAP reporter activity: label 1 if it is equal to or exceeds 1, label 0 if it is smaller.

molecule=Cl[Te]1(Cl)(Cl)OCCO1.N target_entity=RAW-Dual assigned_category="label 1"
molecule="COC1=CC2C3Cc4ccc(OC)c(O)c4C2(CCN3C)CC1=O.Cl (centres undefined)" target_entity=RAW-Dual assigned_category="label 1"
molecule="COc1cc(C)[nH]c(=O)c1CNC(=O)c1c(C)n(C(C)C2CCOCC2)c2ccccc12 (centres undefined)" target_entity=RAW-Dual assigned_category="label 0"
molecule=CN1C2CCC1CC(=O)C2 target_entity=RAW-Dual assigned_category="label 1"
molecule=O=c1[nH]c2ccccc2n1C1CCN(Cc2ccc(-c3nc4cc5nc[nH]c5cc4nc3-c3ccccc3)cc2)CC1 target_entity=RAW-Dual assigned_category="label 0"
molecule="O.O=C1C=CCC2C3CCCN4CCCC(CN12)C34 (centres undefined)" target_entity=RAW-Dual assigned_category="label 1"
molecule=CC[N+](C)(CC)CCOC(=O)C(O)(c1ccccc1)c1ccccc1 target_entity=RAW-Dual assigned_category="label 1"
molecule="C=CC1CN2CCC3(C(=O)Nc4ccccc43)C2CC1/C(=C\\OC)C(=O)OC (centres undefined)" target_entity=RAW-Dual assigned_category="label 0"
molecule="Br.COc1ccc2c(c1)C13CCCCC1C(C2)N(C)CC3.O (centres undefined)" target_entity=RAW-Dual assigned_category="label 0"
molecule=CC[C@H]1CN2CC[C@]3(C(=O)Nc4ccccc43)[C@@H]2C[C@@H]1/C(=C\OC)C(=O)OC target_entity=RAW-Dual assigned_category="label 1"
molecule="Cc1c(C(C)C2NCC(C)CC2O)ccc2c1CC1C2CC=C2CC(O)CCC21C (centres undefined)" target_entity=RAW-Dual assigned_category="label 1"
molecule="COc1cc(C2c3cc4c(cc3C(O)C3COC(=O)C23)OCO4)cc(OC)c1O (centres undefined)" target_entity=RAW-Dual assigned_category="label 1"
molecule="COc1ccc2c(c1OC)CN1CCc3cc4c(cc3C1C2)OCO4 (centres undefined)" target_entity=RAW-Dual assigned_category="label 1"
molecule="Cc1sc2c(c1C)C(c1ccc(Cl)cc1)=NC(CC(=O)Nc1ccc(O)cc1)c1nnc(C)n1-2 (centres undefined)" target_entity=RAW-Dual assigned_category="label 1"
molecule="CC12CCC3C(CCC4=C(O)C(=O)CCC43C)C1CCC2=O (centres undefined)" target_entity=RAW-Dual assigned_category="label 1"
molecule=Cl.O=C(O)Cc1c[nH]cn1 target_entity=RAW-Dual assigned_category="label 0"
molecule=Cl.NCCc1ccc(S(=O)(=O)F)cc1 target_entity=RAW-Dual assigned_category="label 1"
molecule="C=C(C)C1Cc2c(ccc3c2OC2COc4cc(OC)c(OC)cc4C2C3=O)O1 (centres undefined)" target_entity=RAW-Dual assigned_category="label 1"

The measured values listed here are drawn from the supplement of paper PMC10037445.
